As shown below, each of these compounds has a reported hepg2_glo_pod_40 value.
- Tested on: HepG2 cells
- cond: HepG2 glo, time point 40
Form: value (number only, do not type unit).

Consider the worked cases shown below.
Cc1cc(N)c2cc(NC(=O)Nc3ccc4nc(C)cc(N)c4c3)ccc2n1.Cl.Cl [Aminoquinuride dihydrochloride]; -4.417
CC(C)=CCC/C(C)=C/CO; -4.417
CN(C)c1ccc(C(=C2C=CC(=[N+](C)C)C=C2)c2ccccc2)cc1.CN(C)c1ccc(C(=C2C=CC(=[N+](C)C)C=C2)c2ccccc2)cc1.O=C(O)C(=O)O.O=C([O-])C(=O)O.O=C([O-])C(=O)O [Malachite green oxalate]; -5.846
O=S1(=O)OC(c2ccc(O)cc2)(c2ccc(O)cc2)c2ccccc21; -4.417

Exercise: Kindly state the measured hepg2_glo_pod_40 obtained for O=C(O)c1ccccc1O.Oc1cccc2cccnc12 with HepG2 cells.
Key: -4.417

----------
- System: HEK293 cells
- assay_summary: cells
- cond: Homo sapiens, HEK293, read-out: hek293_glo_ec50_32
measure: EC50

O=S1(=O)OC(c2ccc(O)cc2)(c2ccc(O)cc2)c2ccccc21; > 38.3 µM

Exercise: Can you share its EC50? I mean this molecule: CC(C)=CCC/C(C)=C/CO
Key: > 38.3 µM

----------
As shown below, each of these compounds has a reported hepg2_flor_wauc_24 value.
- Test system: HepG2 cells
- assay_summary: CellTox Green Cytotoxicity Assay (flor) in HepG2, HepG2[flor]
- Type: cell-based, human
- cond: HepG2 flor, time point 24
Form: value (number only, do not type unit).

Consider the worked cases shown below.
O=C(O)c1ccccc1O.Oc1cccc2cccnc12 [8-Quinolinol Salicylic acid (1:1)]; 0
O=S1(=O)OC(c2ccc(O)cc2)(c2ccc(O)cc2)c2ccccc21 [Phenol red]; 0
Cc1cc(N)c2cc(NC(=O)Nc3ccc4nc(C)cc(N)c4c3)ccc2n1.Cl.Cl [Aminoquinuride dihydrochloride]; 0
CC(C)=CCC/C(C)=C/CO [Geraniol]; 0

The record that follows has no hepg2_flor_wauc_24 shown yet.
Exercise: Can you share its hepg2_flor_wauc_24? I mean this compound: CN(C)c1ccc(C(=C2C=CC(=[N+](C)C)C=C2)c2ccccc2)cc1.CN(C)c1ccc(C(=C2C=CC(=[N+](C)C)C=C2)c2ccccc2)cc1.O=C(O)C(=O)O.O=C([O-])C(=O)O.O=C([O-])C(=O)O [Malachite green oxalate]
Key: 2.035

----------
As shown below, each of these compounds has a reported hek293_glo_pod_32 value.
- System: HEK293 cells
- cond: HEK293 glo, time point 32
Form: value (number only, do not type unit).

Consider the worked cases shown below.
O=C(O)c1ccccc1O.Oc1cccc2cccnc12 [8-Quinolinol Salicylic acid (1:1)]; -4.417
CN(C)c1ccc(C(=C2C=CC(=[N+](C)C)C=C2)c2ccccc2)cc1.CN(C)c1ccc(C(=C2C=CC(=[N+](C)C)C=C2)c2ccccc2)cc1.O=C(O)C(=O)O.O=C([O-])C(=O)O.O=C([O-])C(=O)O [Malachite green oxalate]; -6.927
Cc1cc(N)c2cc(NC(=O)Nc3ccc4nc(C)cc(N)c4c3)ccc2n1.Cl.Cl [Aminoquinuride dihydrochloride]; -4.417
O=S1(=O)OC(c2ccc(O)cc2)(c2ccc(O)cc2)c2ccccc21 [Phenol red]; -4.417

Exercise: Can you share its hek293_glo_pod_32? I mean this compound: CC(C)=CCC/C(C)=C/CO [Geraniol]
Key: -4.417
